# RUN_DESCRIPTION: chemical genetic growth profiling, strain panel (AID 1159580);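 note: tested at 20 µM; growth read once vehicle control cultures reached saturation at 30 °C; 1 = growth at the plate median or of vehicle wells; lower values mean less growth of the strain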
# CONDITION_SET: S. cerevisiae deletion strains, growth OD, locus YHR082C, strain KSP1, stronger effect = lower value
Out of some 5,500 compounds screened, about 2,000 (36%) were called active. Another 18% or so got no clear call; they are omitted. This is one part of the list.
Classification field. Basis: normalized growth. Definitions: b0 (below 0.9), b1 (0.9 to below 1), b2 (1 or more)

1. Clc1ccc2c(c1)c1ccccc1n2CN1CCOCC1	b0
2. CC(C)Cc1ccc(C(C)C(=O)Nc2nn(C)c3ccccc23)cc1 (stereo not drawn)	b1
3. Brc1ccc2[nH]c3c(c2c1)CCC3	b0
4. CCCc1nc(-c2ccccn2)[nH]c(=O)c1CC1CC1	b1
5. O=S(=O)(NC(=S)Nc1ccc(Cl)c(Cl)c1)c1ccccc1	b2
6. S=C(NCc1ccccc1)Nc1ccc(Cl)c(Cl)c1	b0
7. Cc1ccc(S(=O)(=O)n2c(Sc3ccc([N+](=O)[O-])cc3[N+](=O)[O-])nc3cc(C)ccc32)cc1	b2
8. Cc1csc(NC(=O)Nc2ccc(C(F)(F)F)cc2)c1Cl	b0
9. S=C(Nc1ccc(Cl)cc1)SCc1c(Cl)cccc1Cl	b2
10. Cc1oc(C(C)(C)C)cc1-c1cc(N)n(-c2ccc(I)cc2)n1	b1
11. O=[N+]([O-])c1ccc(S(=O)(=O)c2ccccc2)nc1S(=O)(=O)c1ccccc1	b0
12. O=C(NCCNc1ncc(Cl)cc1C(F)(F)F)C(F)(F)Sc1ccccc1	b2
13. COc1cccc(NC(=S)NC2CC(C)CC(C)(C)C2)c1 (stereo not drawn)	b2
14. Fc1cccc(Cl)c1CSc1n[nH]c(-c2cc(C(F)(F)F)cc(C(F)(F)F)c2)n1	b0
15. O=C(Nc1ccccc1Sc1ccc([N+](=O)[O-])cc1[N+](=O)[O-])C(Cl)(Cl)Cl	b2
16. COC(=O)c1cnn(-c2c(Cl)cccc2Cl)c1C=C(C#N)C#N	b2

---

# RUN_DESCRIPTION: chemical genetic growth profiling, strain panel (AID 1159580);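 note: tested at 20 µM; growth read once vehicle control cultures reached saturation at 30 °C; 1 = growth at the plate median or of vehicle wells; lower values mean less growth of the strain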
# CONDITION_SET: S. cerevisiae deletion strains, growth OD, locus YDR101C, strain arx1, stronger effect = lower value
Out of some 5,500 compounds screened, about 2,000 (36%) were called active. Inconclusive results (about 18%) are left out. The list shows a part of the results.
READOUT_NAME: normalized growth

1) Fc1ccc(C(c2ccccc2)(c2ccccc2F)n2ccnc2)cc1 (configuration not stated)	0.0775
2) CC(=O)OC1CC[C@@]2(C)C(CC[C@]3(C)C2CCC2C4CC(C)(C)CCC4(C(=O)O)CC[C@]23C)C1(C)C (some centres not stated)	1.02
3) Nc1ccccc1C(=O)CC(N)C(=O)O (configuration not stated)	0.956
4) CC(=O)OC1CC(OC(C)=O)C2(C)C(CC(OC(C)=O)C3(C)C4=CC(=O)OC(=O)C4(C)CCC32)C1(C)C (configuration not stated)	0.996
5) O=C1c2c(O)cccc2Cc2cccc(O)c21	0.99
6) Cc1cc(O)c2c(c1)Cc1cccc(O)c1C2=O	1.01
7) Cc1cn([C@H]2C[C@H](N=[N+]=[N-])[C@@H](CO)O2)c(=O)[nH]c1=O	1.02
8) OC(CCN1CCCC1)(c1ccccc1)C1CCCCC1 (configuration not stated)	0.982
9) O=C1C(O)=C(O)C(=O)C(O)=C1O	1.01
10) COc1cc(N)c(Cl)cc1C(=O)NC1CCN(Cc2ccccc2)CC1	0.982
11) Clc1ccccc1C(c1ccccc1)(c1ccccc1)n1ccnc1	0.0588
12) OC(CCN1CCCCC1)(c1ccccc1)C1CCCCC1 (configuration not stated)	0.995
